# Test system: aP2
# TEST: aP2 mRNA expression in adipocytes (real-time PCR)
# Format: cell-based, human
# COND: differentiating adipocytes transfected with oligomeric compound; Table 75
In the oligonucleotide strings, read from the 5' end, every base follows the letter of its sugar. An asterisk marks phosphorothioate; unmarked linkages are phosphodiester. Other units and linkages are bracketed, terminal groups are in braces. A string of capitals states the bases alone. e = 2'-O-(2-methoxyethyl) (MOE); [5mC] = 5-methylcytosine
QUANTITY KIND: aP2 mRNA

Some entries whose results are on file:
[
  {
    "SUBSTANCE": "327911 (antisense eG*e[5mC]*eT*eA*e[5mC]*e[5mC]*eT*eG*e[5mC]*eA*e[5mC]*eT*eG*eT*eA*eA*eG*e[5mC]*eA*e[5mC]*eT*eT*eT*eT) [compound 327911]",
    "QUANTITY KIND": "aP2 mRNA",
    "OBSERVED RESULT": "76 percentage of untreated control (UTC)"
  },
  {
    "SUBSTANCE": "327964 (antisense e[5mC]*e[5mC]*eA*eA*eG*eT*eT*e[5mC]*eT*eG*eT*e[5mC]*eA*eT*eG*e[5mC]*eA*e[5mC]*eT*eG*eA) [compound 327964]",
    "QUANTITY KIND": "aP2 mRNA",
    "OBSERVED RESULT": "96 percentage of untreated control (UTC)"
  },
  {
    "SUBSTANCE": "327907 (antisense eA*eG*e[5mC]*e[5mC]*eT*eA*eT*e[5mC]*e[5mC]*eT*eG*eG*eA*eT*eT*eA*e[5mC]*eT*eT*eG*eA*eA) [compound 327907]",
    "QUANTITY KIND": "aP2 mRNA",
    "OBSERVED RESULT": "29 percentage of untreated control (UTC)"
  }
]

Inquiry: I would be grateful if you could share the reported aP2 mRNA for 328104 (antisense eT*eA*eT*eG*eA*eT*eA*eG*e[5mC]*eT*eT*e[5mC]*e[5mC]*e[5mC]*e[5mC]*eA*eT*eG*eT*eA*eA) [compound 328104] .
Reply text: 94 percentage of untreated control (UTC)

Inquiry: I would be grateful if you could share the reported aP2 mRNA for 327899 (antisense e[5mC]*eA*eG*eT*eG*eA*eA*eT*eT*e[5mC]*eT*eA*e[5mC]*e[5mC]*eA*eG*eT*eG*e[5mC]*e[5mC]*eA*eT*eA) [compound 327899] .
Reply text: 47 percentage of untreated control (UTC)

Inquiry: I would be grateful if you could share the reported aP2 mRNA for 327946 (antisense eA*eG*eG*e[5mC]*eG*eA*eA*eG*eG*eA*eT*eG*eA*e[5mC]*eA*eA*eA*eG*eG*eG*eA*eA) [compound 327946] .
Reply text: 73 percentage of untreated control (UTC)

Inquiry: I would be grateful if you could share the reported aP2 mRNA for 346917 (CAGCUAUGCCAGCAUCUUGCCU; all 2'-MOE, all phosphorothioate, methylation of C and T or U not given here) [compound 346917] .
Reply text: 33 percentage of untreated control (UTC)

Inquiry: I would be grateful if you could share the reported aP2 mRNA for 348124 (CACAAAUUCGGUUCUACAGGGUA; anti-miR; all 2'-MOE, all phosphorothioate, methylation of C and T or U not given here) [compound 348124] .
Reply text: 59 percentage of untreated control (UTC)

###

# Tested on: follistatin
# TEST: Follistatin mRNA expression in HepG2 cells
# Format: cell-based, human
# COND: Experiment 2, insulin treated: HepG2 cells transfected with oligomeric compound, 1 nM insulin for four hours; UTC + 1 nM insulin = 100
In the oligonucleotide strings, read from the 5' end, every base follows the letter of its sugar. An asterisk marks phosphorothioate; unmarked linkages are phosphodiester. Other units and linkages are bracketed, terminal groups are in braces. A string of capitals states the bases alone. e = 2'-O-(2-methoxyethyl) (MOE); [5mC] = 5-methylcytosine; d = 2'-deoxy (DNA)
Property: Follistatin mRNA expression; scope: individual substances
A bare number is all that is needed in reply.

Inquiry: I would be grateful if you could share the reported Follistatin mRNA expression for 327950 (antisense eT*e[5mC]*eA*eG*eT*eT*eT*eT*eG*e[5mC]*eA*eT*eA*eG*eA*eT*eT*eT*eG*e[5mC]*eA*e[5mC]*eA) [compound 327950] .
Reply text: 89

Inquiry: I would be grateful if you could share the reported Follistatin mRNA expression for 328702 (eT*eG*eA*e[5mC]*e[5mC]*dA*d[5mC]*dA*dA*dA*dA*dT*dT*d[5mC]*d[5mC]*eT*eT*eA*e[5mC]*eA; antisense) [compound 328702] .
Reply text: 88

Inquiry: I would be grateful if you could share the reported Follistatin mRNA expression for 327916 (antisense eT*eG*eG*e[5mC]*eA*eT*eT*e[5mC]*eA*e[5mC]*e[5mC]*eG*e[5mC]*eG*eT*eG*e[5mC]*e[5mC]*eT*eT*eA*eA) [compound 327916] .
Reply text: 98

Inquiry: I would be grateful if you could share the reported Follistatin mRNA expression for 328761 (antisense eG*e[5mC]*eA*eG*eG*d[5mC]*dT*dA*dA*dA*dA*dG*dA*dA*dA*eT*eA*eA*eG*e[5mC]) [compound 328761] .
Reply text: 53

Inquiry: I would be grateful if you could share the reported Follistatin mRNA expression for 328114 (antisense eA*eA*eT*e[5mC]*eT*e[5mC]*eA*eT*eT*eT*eT*e[5mC]*eA*eT*eA*e[5mC]*eT*eT*eG*e[5mC]*eA) [compound 328114] .
Reply text: 81

###

Property: % cells in cell cycle phase: G2/M; scope: individual substances
# Tested on: HeLa cells
# TEST: Cell cycle assay in HeLa cells
# Format: cell-based, human
# COND: HeLa cells, 25 nM, 48 hours
In the oligonucleotide strings, read from the 5' end, every base follows the letter of its sugar. An asterisk marks phosphorothioate; unmarked linkages are phosphodiester. Other units and linkages are bracketed, terminal groups are in braces. A string of capitals states the bases alone. e = 2'-O-(2-methoxyethyl) (MOE); [5mC] = 5-methylcytosine; d = 2'-deoxy (DNA)
# value in %; strip the unit string

Some entries whose results are on file:
[
  {
    "SUBSTANCE": "327902 (antisense eG*eG*e[5mC]*eT*eG*eT*e[5mC]*eA*eA*eT*eT*e[5mC]*eA*eT*eA*eG*eG*eT*e[5mC]*eA*eG) [compound 327902]",
    "OBSERVED RESULT": 19
  },
  {
    "SUBSTANCE": "327905 (antisense e[5mC]*eA*eG*eA*e[5mC]*eT*e[5mC]*e[5mC]*eG*eG*eT*eG*eG*eA*eA*eT*eG*eA*eA*eG*eG*eA) [compound 327905]",
    "OBSERVED RESULT": 18
  },
  {
    "SUBSTANCE": "328403 (antisense eA*eG*eG*e[5mC]*e[5mC]*dT*dA*dT*dT*d[5mC]*d[5mC]*dT*dG*dT*dA*eG*e[5mC]*eA*eA*eA) [compound 328403]",
    "OBSERVED RESULT": 18
  }
]

// switching to the query substance
Inquiry: Could you share what % cells in cell cycle phase: G2/M was measured for 328383 (eA*eG*eA*eG*eG*dG*dG*dA*dG*dA*d[5mC]*dG*dA*dG*dA*eG*e[5mC]*eA*e[5mC]*eT) [compound 328383] , tested on HeLa cells?
Reply text: 18

###

# System: HeLa cells
# TEST: Cell cycle assay in HeLa cells
# Format: cell-based, human
# COND: HeLa cells, 150 nM oligomeric compound, 24 hours, relative to untreated control (UTC = 100)
In the oligonucleotide strings, read from the 5' end, every base follows the letter of its sugar. An asterisk marks phosphorothioate; unmarked linkages are phosphodiester. Other units and linkages are bracketed, terminal groups are in braces. A string of capitals states the bases alone. e = 2'-O-(2-methoxyethyl) (MOE); [5mC] = 5-methylcytosine
QUANTITY KIND: % cells in cell cycle phase G2/M (%)
# value in %; strip the unit string

[
  {
    "SUBSTANCE": "327896 (antisense eA*e[5mC]*eA*eG*eT*eT*e[5mC]*eT*eT*e[5mC]*eA*eA*e[5mC]*eT*eG*eG*e[5mC]*eA*eG*e[5mC]*eT*eT) [compound 327896]",
    "ASSAYED TARGET": "HeLa cells",
    "QUANTITY KIND": "% cells in cell cycle phase G2/M",
    "OBSERVED RESULT": 128
  },
  {
    "SUBSTANCE": "341785 (antisense GGAGTGAAGACACGGAGCCAGA; all 2'-MOE, all phosphorothioate, methylation of C not given here) [compound 341785]",
    "ASSAYED TARGET": "HeLa cells",
    "QUANTITY KIND": "% cells in cell cycle phase G2/M",
    "OBSERVED RESULT": 53
  },
  {
    "SUBSTANCE": "340350 (antisense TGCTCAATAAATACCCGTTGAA; all 2'-MOE, all phosphorothioate, methylation of C not given here) [compound 340350]",
    "ASSAYED TARGET": "HeLa cells",
    "QUANTITY KIND": "% cells in cell cycle phase G2/M",
    "OBSERVED RESULT": 104
  }
]

Inquiry: I would be grateful if you could share the reported % cells in cell cycle phase G2/M for 338797 (antisense CTGGGGAGGGGGTTAGCGTC; all 2'-MOE, all phosphorothioate, methylation of C not given here) [compound 338797] .
Reply text: 148

Inquiry: I would be grateful if you could share the reported % cells in cell cycle phase G2/M for 327944 (antisense eA*eA*eA*eG*eT*eG*eT*e[5mC]*eA*eG*eA*eT*eA*e[5mC]*eG*eG*eT*eG*eT*eG*eG) [compound 327944] .
Reply text: 111

Source of measurements: patent US8178506B2
